Ref: paper PMC6350941

Target: FANCI (human);FANCD2 (human) (human;human, UniProt Q9NVI1;Q9BXW9 1-1328;1-1451, |)
Sequence (Q9NVI1 whole entry, chain 1 of 2): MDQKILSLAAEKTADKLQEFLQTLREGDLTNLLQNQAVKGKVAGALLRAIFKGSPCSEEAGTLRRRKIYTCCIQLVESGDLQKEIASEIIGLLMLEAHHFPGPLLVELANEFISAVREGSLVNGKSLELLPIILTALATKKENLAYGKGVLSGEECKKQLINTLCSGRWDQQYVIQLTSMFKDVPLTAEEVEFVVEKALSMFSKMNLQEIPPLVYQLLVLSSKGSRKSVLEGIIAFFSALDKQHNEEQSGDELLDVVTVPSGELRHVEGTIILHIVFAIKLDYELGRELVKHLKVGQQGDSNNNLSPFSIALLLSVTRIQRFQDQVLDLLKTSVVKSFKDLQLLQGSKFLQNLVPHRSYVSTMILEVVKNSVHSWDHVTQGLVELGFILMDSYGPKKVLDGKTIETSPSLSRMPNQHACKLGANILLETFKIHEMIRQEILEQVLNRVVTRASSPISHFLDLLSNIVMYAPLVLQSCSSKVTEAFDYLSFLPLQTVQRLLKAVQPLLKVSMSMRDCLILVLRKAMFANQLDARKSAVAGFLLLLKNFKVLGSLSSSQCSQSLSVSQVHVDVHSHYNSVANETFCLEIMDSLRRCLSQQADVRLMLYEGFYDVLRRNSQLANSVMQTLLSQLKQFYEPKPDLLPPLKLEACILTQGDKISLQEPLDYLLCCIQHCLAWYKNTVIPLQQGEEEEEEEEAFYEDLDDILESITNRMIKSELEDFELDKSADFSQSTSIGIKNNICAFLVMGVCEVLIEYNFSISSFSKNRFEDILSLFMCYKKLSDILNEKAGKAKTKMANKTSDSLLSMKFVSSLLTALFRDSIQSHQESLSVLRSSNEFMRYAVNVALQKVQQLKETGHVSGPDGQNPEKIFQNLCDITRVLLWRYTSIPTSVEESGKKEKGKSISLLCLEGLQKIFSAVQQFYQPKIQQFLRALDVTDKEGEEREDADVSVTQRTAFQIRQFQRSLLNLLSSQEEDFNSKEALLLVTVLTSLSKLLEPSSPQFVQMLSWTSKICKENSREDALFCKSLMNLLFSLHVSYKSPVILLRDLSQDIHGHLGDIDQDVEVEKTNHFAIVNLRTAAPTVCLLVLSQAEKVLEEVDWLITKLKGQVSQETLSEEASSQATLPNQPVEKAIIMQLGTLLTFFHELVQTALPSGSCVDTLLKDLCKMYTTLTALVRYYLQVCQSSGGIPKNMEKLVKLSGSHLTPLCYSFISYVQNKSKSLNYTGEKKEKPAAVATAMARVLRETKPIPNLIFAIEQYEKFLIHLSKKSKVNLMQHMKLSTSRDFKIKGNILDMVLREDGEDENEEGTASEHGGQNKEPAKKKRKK
Sequence (Q9BXW9 whole entry, chain 2 of 2): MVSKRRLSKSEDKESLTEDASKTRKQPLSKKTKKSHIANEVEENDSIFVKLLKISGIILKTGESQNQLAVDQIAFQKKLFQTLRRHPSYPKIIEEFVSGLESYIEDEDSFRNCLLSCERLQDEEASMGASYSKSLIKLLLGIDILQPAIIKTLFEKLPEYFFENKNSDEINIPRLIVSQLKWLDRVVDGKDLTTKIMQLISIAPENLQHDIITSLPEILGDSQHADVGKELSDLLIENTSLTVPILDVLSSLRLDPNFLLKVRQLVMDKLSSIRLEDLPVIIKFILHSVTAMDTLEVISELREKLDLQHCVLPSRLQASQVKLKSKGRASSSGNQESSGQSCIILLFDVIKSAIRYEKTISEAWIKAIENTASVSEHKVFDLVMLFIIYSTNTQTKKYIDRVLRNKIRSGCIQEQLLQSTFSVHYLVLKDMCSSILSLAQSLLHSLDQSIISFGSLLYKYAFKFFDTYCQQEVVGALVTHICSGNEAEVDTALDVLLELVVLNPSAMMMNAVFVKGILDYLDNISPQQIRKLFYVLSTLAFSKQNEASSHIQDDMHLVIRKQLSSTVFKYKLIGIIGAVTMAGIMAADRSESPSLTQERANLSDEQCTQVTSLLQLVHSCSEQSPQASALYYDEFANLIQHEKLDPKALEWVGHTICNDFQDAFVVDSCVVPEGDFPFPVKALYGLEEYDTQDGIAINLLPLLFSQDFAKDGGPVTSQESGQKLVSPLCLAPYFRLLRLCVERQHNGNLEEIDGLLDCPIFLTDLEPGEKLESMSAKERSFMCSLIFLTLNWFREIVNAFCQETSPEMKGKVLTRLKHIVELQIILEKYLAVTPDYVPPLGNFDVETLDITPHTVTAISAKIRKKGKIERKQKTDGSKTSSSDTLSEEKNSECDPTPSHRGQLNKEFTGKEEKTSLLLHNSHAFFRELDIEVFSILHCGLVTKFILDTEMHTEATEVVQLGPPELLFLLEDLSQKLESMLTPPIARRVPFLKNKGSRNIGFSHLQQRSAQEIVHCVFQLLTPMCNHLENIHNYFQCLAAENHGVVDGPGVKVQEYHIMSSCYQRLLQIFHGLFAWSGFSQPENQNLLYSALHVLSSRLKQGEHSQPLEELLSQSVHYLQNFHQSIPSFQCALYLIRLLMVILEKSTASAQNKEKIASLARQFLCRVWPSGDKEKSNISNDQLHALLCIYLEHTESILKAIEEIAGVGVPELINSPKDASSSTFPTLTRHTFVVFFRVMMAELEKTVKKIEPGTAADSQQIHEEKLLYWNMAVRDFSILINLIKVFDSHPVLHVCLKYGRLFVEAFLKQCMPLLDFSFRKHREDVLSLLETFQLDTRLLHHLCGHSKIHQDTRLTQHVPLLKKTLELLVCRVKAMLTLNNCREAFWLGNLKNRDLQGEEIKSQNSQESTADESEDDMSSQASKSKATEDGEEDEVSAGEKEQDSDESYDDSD
Method summary: EMSA
Value kind: binding result

Consider the worked cases shown below.
ssDNA(G48) (ssDNA) DNA: GGATGAGAGGGCATGTGAGTGCGTGGCTGAGAGCGGGATTGCTGAGTCTGGTGCTGGGAT: binds
ssRNA / ssRNA(G28) (ssRNA) RNA: UGAUAAGAGGUCAUUUGAAUUCAUGGCUUAGAGCUUAAUUGCUGAAUCUGGUGCUGGGAU: binds
dsDNA / dsDNA(G28) (dsDNA) DNA 1: TGATAAGAGGTCATTTGAATTCATGGCTTAGAGCTTAATTGCTGAATCTGGTGCTGGGAT DNA 2: ATCCCAGCACCAGATTCAGCAATTAAGCTCTAAGCCATGAATTCAAATGACCTCTTATCA: binds
ssDNA / ssDNA(G28) (ssDNA) DNA: TGATAAGAGGTCATTTGAATTCATGGCTTAGAGCTTAATTGCTGAATCTGGTGCTGGGAT: binds

Then there is this binder:
Record summary for ssRNA(G48) (ssRNA) RNA: GGAUGAGAGGGCAUGUGAGUGCGUGGCUGAGAGCGGGAUUGCUGAGUCUGGUGCUGGGAU : reported binding result = binds
